Reference for the values: ChEMBL document CHEMBL5346874

- Assay comment: Metabolic stability in CD-1 mouse liver microsomes assessed as half life at pH 7.4 measured upto 40 mins in presence of NADP
- Format: ADME, Microsome
Result type: half-life (min)
# unit: min | format: bare number

Observe how each entry below is paired with its result.
> print(dat)
                                        smi  assay.result
1  CCN(CC)CCNc1nc(NC(C)(C)C)nc2cc(-c3ccc(C)cc3)sc12.Cl.Cl            37
2  CCN(CC)CCCNc1nc(NC(C)(C)C)nc2cc(-c3ccc(C)cc3)sc12.Cl.Cl            37

get_value(item= Cc1ccc(-c2cc3nc(NC(C)(C)C)[nH]c(=O)c3s2)cc1.Cl , readout=half-life) returns 11

get_value(item= Cc1ccc(-c2cc3nc(NC(C)(C)C)nc(NCCN(C)C)c3s2)cc1.Cl.Cl , readout=half-life) returns 37

* * *

- System: Plasmodium falciparum
- Assay comment: Antiplasmodial activity against blood stage Plasmodium falciparum K1 assessed as reduction in parasite growth incubated for 72 hrs by SYBR Green I fluorescence based method
- Format: functional, organism-based
- Experimental context: Plasmodium falciparum, K1, 72 h
pEC50: −log10 of the molar value.
Given measured pEC50, output Satisfied if it is greater than or equal to 6 and Not satisfied if not.

Use these answered entries as a reference point.
> print(dat)
                                        smi       target.or.system          class
1  CCN(CC)CCCNc1nc(NC(C)(C)C)nc2cc(-c3ccc(C)cc3)sc12  Plasmodium falciparum      Satisfied
2  Cc1ccc(-c2cc3nc(NC(C)(C)C)nc(NC4CCCCC4)c3s2)cc1  Plasmodium falciparum  Not satisfied
3  COc1ccc(CNC2CCN(c3nc(NC(C)(C)C)nc4cc(-c5ccc(C)cc5)sc34)CC2)cc1  Plasmodium falciparum      Satisfied

Q: Decide: is the reported value of pEC50 for Cc1ccc(-c2cc3nc(NC(C)(C)C)nc(N4CCC(NCc5ccc(C(F)(F)F)cc5)CC4)c3s2)cc1 equal to or greater than 6?
Result: Not satisfied

* * *

- Tested on: Plasmodium falciparum
- Assay comment: Antiplasmodial activity against blood stage Plasmodium falciparum K1 assessed as reduction in parasite growth incubated for 72 hrs by SYBR Green I fluorescence based method
- Type: functional, organism-based
- Experimental context: Plasmodium falciparum, K1, 72 h
Result type: EC50 (nM)
# unit: nM | format: bare number

> print(dat)
                                   molecule  quantity.unit  assay.result
1  C[C@H]1c2cccc(O)c2C(=O)C2=C(O)[C@]3(O)C(=O)C(C(N)=O)=C(O)[C@@H](N(C)C)[C@@H]3[C@@H](O)[C@@H]21             nM          5000
2  Cc1ccc(-c2cc3nc(NC(C)(C)C)nc(N4CCN(C)CC4)c3s2)cc1             nM          1200
3  Cc1ccc(-c2cc3nc(NC(C)(C)C)nc(N4CCCCC4)c3s2)cc1             nM          1200
4  Cc1ccc(CNC2CCN(c3nc(NC(C)(C)C)nc4cc(-c5ccc(C)cc5)sc34)CC2)cc1             nM           700
5  Cc1ccc(-c2cc3nc(NC(C)(C)C)nc(N4CCC(NCc5ccc(Cl)cc5)CC4)c3s2)cc1             nM          1000

get_value(item= Cc1ccc(-c2cc3nc(NC(C)(C)C)nc(NC4CCC4)c3s2)cc1 , readout=EC50) returns 900

get_value(item= Cc1ccc(-c2cc3nc(NC(C)(C)C)nc(N4CCC(NCc5ccc([N+](=O)[O-])cc5)CC4)c3s2)cc1 , readout=EC50) returns 700

get_value(item= Cc1ccc(-c2cc3nc(NC(C)(C)C)nc(NC4CCCC4)c3s2)cc1 , readout=EC50) returns 1300

* * *

Papp at 4 h reference
- Assay comment: Effective permeability of compound at pH 5 incubated for 4 hrs by PAMPA-GIT assay
- Assay type: ADME
- Experimental context: read-out: Peff
Give your result as the value with the unit written after it.

Observe how each entry below is paired with its result.
> print(dat)
                                        smi     assay.result
1  CCN(CC)CCCNc1nc(NC(C)(C)C)nc2cc(-c3ccc(C)cc3)sc12.Cl.Cl  48.9 ×10⁻⁶ cm/s
2  CCN(CC)CCNc1nc(NC(C)(C)C)nc2cc(-c3ccc(C)cc3)sc12.Cl.Cl  51.2 ×10⁻⁶ cm/s
3  Cc1ccc(-c2cc3nc(NC(C)(C)C)nc(NCCCN(C)C)c3s2)cc1.Cl.Cl  36.2 ×10⁻⁶ cm/s

Then this compound:
get_value(item= Cc1ccc(-c2cc3nc(NC(C)(C)C)nc(NCCN(C)C)c3s2)cc1.Cl.Cl , readout=Papp at 4 h) returns 43 ×10⁻⁶ cm/s

* * *

- Assay comment: Effective permeability of compound at pH 6.0 incubated for 4 hrs by PAMPA-GIT assay
- Format: ADME
- Experimental context: read-out: Peff
Papp at 4 h reference
# unit: ×10⁻⁶ cm/s | format: bare number

Observe how each entry below is paired with its result.
> print(dat)
                                        smi  quantity.unit  assay.result
1  CCN(CC)CCCNc1nc(NC(C)(C)C)nc2cc(-c3ccc(C)cc3)sc12.Cl.Cl     ×10⁻⁶ cm/s          46.6
2  CCN(CC)CCNc1nc(NC(C)(C)C)nc2cc(-c3ccc(C)cc3)sc12.Cl.Cl     ×10⁻⁶ cm/s          52.1

get_value(item= Cc1ccc(-c2cc3nc(NC(C)(C)C)nc(NCCN(C)C)c3s2)cc1.Cl.Cl , readout=Papp at 4 h) returns 41.1

get_value(item= Cc1ccc(-c2cc3nc(NC(C)(C)C)nc(NCCCN(C)C)c3s2)cc1.Cl.Cl , readout=Papp at 4 h) returns 47.8

* * *

- Assay comment: Cytotoxicity against cynomolgus monkey Primary hepatocyte assessed as cell viability
- Type: toxicity, cell-based, Macaca fascicularis
- Experimental context: primary hepatocytes
Result type: CC50

> print(dat)
                                        smi  result.type  assay.result
1  Cc1ccc(-c2cc3nc(NC(C)(C)C)nc(N4CCC(NCc5ccc(Br)cc5)CC4)c3s2)cc1         CC50       20.7 µM
2  Cc1ccc(-c2cc3nc(NC(C)(C)C)nc(N4CCCC4)c3s2)cc1         CC50       17.5 µM

get_value(item= Cc1ccc(-c2cc3nc(NC(C)(C)C)nc(N4CCC(C)CC4)c3s2)cc1 , readout=CC50) returns 52.5 µM

get_value(item= CCN(CC)CCCNc1nc(NC(C)(C)C)nc2cc(-c3ccc(C)cc3)sc12 , readout=CC50) returns 25.8 µM

get_value(item= Cc1ccc(-c2cc3nc(NC(C)(C)C)nc(N4CCC(NCc5ccc(Cl)cc5)CC4)c3s2)cc1 , readout=CC50) returns 36.1 µM

get_value(item= Cc1ccc(-c2cc3nc(NC(C)(C)C)nc(NC4CCC4)c3s2)cc1 , readout=CC50) returns 8.8 µM

get_value(item= Cc1ccc(-c2cc3nc(NC(C)(C)C)nc(N4CCC(NCc5ccccc5)CC4)c3s2)cc1 , readout=CC50) returns 43.6 µM

get_value(item= Cc1ccc(-c2cc3nc(NC(C)(C)C)[nH]c(=O)c3s2)cc1 , readout=CC50) returns > 200 µM

get_value(item= Cc1ccc(CNC2CCN(c3nc(NC(C)(C)C)nc4cc(-c5ccc(C)cc5)sc34)CC2)cc1 , readout=CC50) returns 35.5 µM

get_value(item= Cc1ccc(-c2cc3nc(NC(C)(C)C)nc(N4CCC4)c3s2)cc1 , readout=CC50) returns 25.8 µM

* * *

Papp at 4 h reference
- Assay comment: Effective permeability of compound at pH 7.4 incubated for 4 hrs by PAMPA-GIT assay
- Format: ADME
- Experimental context: read-out: Peff
# unit: ×10⁻⁶ cm/s | format: bare number

get_value(item= CCN(CC)CCCNc1nc(NC(C)(C)C)nc2cc(-c3ccc(C)cc3)sc12.Cl.Cl , readout=Papp at 4 h) returns 63.1

get_value(item= CCN(CC)CCNc1nc(NC(C)(C)C)nc2cc(-c3ccc(C)cc3)sc12.Cl.Cl , readout=Papp at 4 h) returns 73.9

get_value(item= Cc1ccc(-c2cc3nc(NC(C)(C)C)nc(NCCCN(C)C)c3s2)cc1.Cl.Cl , readout=Papp at 4 h) returns 67.3

get_value(item= Cc1ccc(-c2cc3nc(NC(C)(C)C)[nH]c(=O)c3s2)cc1.Cl , readout=Papp at 4 h) returns 0.46

get_value(item= Cc1ccc(-c2cc3nc(NC(C)(C)C)nc(NCCN(C)C)c3s2)cc1.Cl.Cl , readout=Papp at 4 h) returns 64.9
